details: in water, 308.15 K
experimental.endpoint: solubility (mole fraction)
Give bare numbers.

**Q:** Look up solubility (mole fraction): "NS(=O)(=O)Cc1noc2ccccc12"
**A:** 0.000112

* * *

details: in acetonitrile, 293.15 K
experimental.endpoint: solubility (mole fraction)
Give bare numbers.

**Q:** Look up solubility (mole fraction): "NS(=O)(=O)Cc1noc2ccccc12"
**A:** 0.0108

* * *

conditions: in ethanol, 323.15 K
experimental.endpoint: solubility (mole fraction)
Give bare numbers.

**Q:** Look up solubility (mole fraction): "NS(=O)(=O)Cc1noc2ccccc12"
**A:** 0.00446

* * *

details: in acetonitrile, 283.15 K
experimental.endpoint: solubility (mole fraction)
Give bare numbers.

**Q:** Look up solubility (mole fraction): "NS(=O)(=O)Cc1noc2ccccc12"
**A:** 0.00802

* * *

settings: in acetonitrile, 288.15 K
experimental.endpoint: solubility (mole fraction)
Answers are plain numbers.

**Q:** Look up solubility (mole fraction): "NS(=O)(=O)Cc1noc2ccccc12"
**A:** 0.00937

* * *

settings: in ethanol, 283.15 K
experimental.endpoint: solubility (mole fraction)
Numbers only.

**Q:** Look up solubility (mole fraction): "NS(=O)(=O)Cc1noc2ccccc12"
**A:** 0.00162

* * *

details: in water, 283.15 K
experimental.endpoint: solubility (mole fraction)
One number for each entry.

**Q:** Look up solubility (mole fraction): "NS(=O)(=O)Cc1noc2ccccc12"
**A:** 2.5e-05

* * *

conditions: in DMF, 283.15 K
experimental.endpoint: solubility (mole fraction)
Numbers only.

**Q:** Look up solubility (mole fraction): "NS(=O)(=O)Cc1noc2ccccc12"
**A:** 0.0356

* * *

conditions: in acetonitrile, 313.15 K
experimental.endpoint: solubility (mole fraction)

**Q:** Look up solubility (mole fraction): "NS(=O)(=O)Cc1noc2ccccc12"
**A:** 0.0183

* * *

conditions: in DMF, 308.15 K
experimental.endpoint: solubility (mole fraction)
Numbers only.

**Q:** Look up solubility (mole fraction): "NS(=O)(=O)Cc1noc2ccccc12"
**A:** 0.0852

* * *

conditions: in DMF, 313.15 K
experimental.endpoint: solubility (mole fraction)
One number for each entry.

**Q:** Look up solubility (mole fraction): "NS(=O)(=O)Cc1noc2ccccc12"
**A:** 0.101

* * *

conditions: in water, 318.15 K
experimental.endpoint: solubility (mole fraction)

**Q:** Look up solubility (mole fraction): "NS(=O)(=O)Cc1noc2ccccc12"
**A:** 0.000196

* * *

settings: in water, 278.15 K
experimental.endpoint: solubility (mole fraction)
Give bare numbers.

**Q:** Look up solubility (mole fraction): "NS(=O)(=O)Cc1noc2ccccc12"
**A:** 1.78e-05

* * *

conditions: in ethanol, 318.15 K
experimental.endpoint: solubility (mole fraction)
Numbers only.

**Q:** Look up solubility (mole fraction): "NS(=O)(=O)Cc1noc2ccccc12"
**A:** 0.004

* * *

details: in acetonitrile, 323.15 K
experimental.endpoint: solubility (mole fraction)
One number for each entry.

**Q:** Look up solubility (mole fraction): "NS(=O)(=O)Cc1noc2ccccc12"
**A:** 0.0233

* * *

settings: in water, 288.15 K
experimental.endpoint: solubility (mole fraction)
Answers are plain numbers.

**Q:** Look up solubility (mole fraction): "NS(=O)(=O)Cc1noc2ccccc12"
**A:** 3.43e-05

Data origin: BigSolDB 2.1
